Details: basic group
Returns one of satisfied or not satisfied; satisfied when pKa is >= 5.

1) CC(O)C[NH+](CCCN1CCOCC1)CC(C)O (configuration not stated): satisfied
2) Nc1ccccc1B(O)O: not satisfied
3) C[C@]1(O)CCCC[C@@H]1N: satisfied

Given CC1=CC(C)=N/C1=C/c1[nH]c(C)cc1C , state whether its pKa is at least 5.
satisfied

Ok, now Oc1cccc2ccncc12
satisfied

----------
Conditions: acidic group
Returns one of met or not met; met when pKa is >= 6.

Past entries and their recorded results:
1) CCC(C(C)=O)C(C)=O: met
2) Oc1ccc(Cl)cc1CN1CCOCC1: met
3) Nc1c2ccccc2[nH+]c2cccc(O)c12: not met

Given [O-]c1c(O)cccc1O , state whether its pKa is at least 6.
met

Ok, now [NH3+]C(Cc1ccccc1)c1nnn[nH]1 (stereo not drawn)
not met

----------
Conditions: acidic group
Measured pKa, listed per entry for reference.

Example results:
1) CCC(C)(C)C(=O)O: 5.03
2) CCCc1c(-c2ccccc2)nn(-c2ccccc2)c1O: 7
3) O=[N+]([O-])c1cccc(-c2nnn[nH]2)c1: 3.25
4) Nc1nc([S-])c2[nH]cnc2n1: 11.6
5) NC(=O)C1=CN2CCC1CC2: 7.32
6) Cc1ccc(S(=O)(=O)NCC[NH+](CC(=O)O)CC(=O)O)cc1: 2.15

Quick one: pKa for [NH3+]CC(=O)N1CCC[C@H]1C(=O)O ?
2.95

Ok, now C/C(=C\c1cc(C(C)(C)C)c(O)c(C(C)(C)C)c1)C(=O)[O-]
11.5

Ok, now O=C(O)c1ccc[se]1
3.43

----------
Details: acidic group
Returns one of True or False; True when pKa is >= 5.

1) O=C(O)C(CO)c1ccccc1 (configuration not stated): False
2) CCCCc1c(-c2ccccc2)n[nH]c1O: True
3) S=C(NCc1ccccc1)c1ccccc1: True

Given [NH3+]C/C=C\C(=O)O , state whether its pKa is at least 5.
False

Ok, now Cn1c([O-])nc2nc[nH]c2c1=O
True

Ok, now O=C(O)C[Se]c1ccccc1
False

Ok, now COCC1=C(C(=O)O)C2C=CC1C2 (configuration not stated)
False

----------
Measured pKa, listed per entry for reference.
Settings: basic group
Number, no unit, nothing else.

1. CC1=CC(=C2C=CC=CC=C2)C=C(C)C1=O: 6.26
2. CCN(CC)Cc1ccccc1OC: 10.2
3. NCC(=O)NN: 7.69
4. N[C@@H](CCC(=O)[O-])C(=O)[O-]: 9.33
5. O=[N+]([O-])c1ccncc1: 1.86
6. CCCCCCCCCCNc1ccccc1: 4.56
7. CN(C)CCN: 9.53
8. SCCNc1ccccc1: 3.78

Quick one: pKa for CC(=O)NS(=O)(=O)c1ccc(N)cc1 ?
1.58

Ok, now C[NH+](C)CCCNc1c2ccccc2nc2cccc([N+](=O)[O-])c12
6.2

Ok, now NCC[Se-]
10.9

Ok, now c1ccc(-c2cnc(-c3ccccc3)o2)cc1
0.84

Ok, now C[NH+]1C[C@H](C(=O)O)C[C@@]2(O)c3cccc4[nH]cc(c34)C[C@H]12
3.94

Ok, now Cc1cc(C)n(C)c(=O)n1
4

Ok, now CCCCN
10.7
